Reference source: paper PMC7023430

# System: Pseudomonas aeruginosa ATCC 27853, CCM 3955
# ASSAY TEXT: Antibacterial microdilution broth method, P. aeruginosa
# Type: cell-based
# CONDITION PARAMETERS: Pseudomonas aeruginosa; P. aeruginosa; 24 h incubation; read-out: MIC PA 24 h
Reported MIC values for a set of compounds

O=C(O)c1ccc(N=Cc2ccc(Cl)cc2O)cc1 = > 500 µM
O=C(O)c1ccc(N=Cc2cc(I)ccc2O)cc1 = > 250 µM
O=C(O)c1ccc(N=Cc2cc(I)cc(I)c2O)cc1 = > 500 µM
O=C(O)c1ccc(N=Cc2cc(Br)ccc2O)cc1 = > 250 µM
Nc1ccc(C(=O)O)cc1 = > 500 µM

Input line: Query (compound): `CC(C)(C)c1ccc(O)c(C=Nc2ccc(C(=O)O)cc2)c1` ; field requested: MIC
Output line: > 500 µM

Input line: Query (compound): `O=C(O)c1ccc(N=Cc2cc(Cl)cc(Cl)c2O)cc1` ; field requested: MIC
Output line: > 500 µM

----------
# Test system: Lichtheimia corymbifera 272
# ASSAY TEXT: Antifungal microdilution broth method, L. corymbifera
# Assay type: cell-based
# CONDITION PARAMETERS: 48 h, read-out: MIC LC 48 h
ENDPOINT NAME: MIC

Please review the entries below; each comes with its answer.
O=C(O)c1ccc(N=Cc2c(O)cccc2Cl)cc1 [1k] = > 125 µM
O=C(O)c1ccc(N=Cc2cc(I)cc(I)c2O)cc1 [1q] = 250 µM
CC(C)(C)c1ccc(O)c(C=Nc2ccc(C(=O)O)cc2)c1 [1j] = > 500 µM
O=C(O)c1ccc(N=Cc2cc([N+](=O)[O-])ccc2O)cc1 [1f] = 500 µM

Input line: Query (compound): COc1ccc(O)c(C=Nc2ccc(C(=O)O)cc2)c1 [1h] ; field requested: MIC
Output line: > 500 µM

Input line: Query (compound): COc1ccccc1C=Nc1ccc(C(=O)O)cc1 [1s] ; field requested: MIC
Output line: > 500 µM

Input line: Query (compound): O=C(O)c1ccc(N=Cc2cc(Cl)cc(I)c2O)cc1 [1p] ; field requested: MIC
Output line: 250 µM

Input line: Query (compound): O=C(O)c1ccc(N=Cc2cc(O)ccc2O)cc1 [1i] ; field requested: MIC
Output line: > 500 µM

Input line: Query (compound): O=C(O)c1ccc(N=Cc2ccc(O)cc2)cc1 [1t] ; field requested: MIC
Output line: > 500 µM

Input line: Query (compound): O=C(O)c1ccc(N=Cc2cccc(Cl)c2O)cc1 [1m] ; field requested: MIC
Output line: 500 µM

Input line: Query (compound): O=C(O)c1ccc(N=Cc2cc(I)ccc2O)cc1 [1e] ; field requested: MIC
Output line: > 125 µM

----------
# System: methicillin-resistant Staphylococcus aureus ATCC 43300, CCM 4750 (MRSA)
# ASSAY TEXT: Antibacterial microdilution broth method, MRSA
# Type: cell-based
# CONDITION PARAMETERS: Staphylococcus aureus, 48 h incubation, read-out: MIC MRSA 48 h
ENDPOINT NAME: MIC (µM)
Please respond with the number in µM and leave the unit unwritten.

Please review the entries below; each comes with its answer.
O=C(O)c1ccc(N=Cc2cc(O)ccc2O)cc1 = 250
O=C(O)c1ccc(N=Cc2ccc([N+](=O)[O-])o2)cc1 = 62.5
O=C(O)c1ccc(N=Cc2cc(I)cc(I)c2O)cc1 = 62.5
O=C(O)c1ccc(N=Cc2cc([N+](=O)[O-])ccc2O)cc1 = 500
O=C(O)c1ccc(N=Cc2cc(Cl)cc(Br)c2O)cc1 = 31.2

Input line: Any idea what MIC came out for `O=C(O)c1ccc(N=Cc2cc(Cl)cc(I)c2O)cc1` on methicillin-resistant Staphylococcus aureus ATCC 43300, CCM 4750 (MRSA)?
Output line: 15.6

Input line: Any idea what MIC came out for `O=C(O)c1ccc(N=Cc2cc(Cl)cc(Cl)c2O)cc1` on methicillin-resistant Staphylococcus aureus ATCC 43300, CCM 4750 (MRSA)?
Output line: 250

----------
Reported MIC values for a set of molecules
# System: Mycobacterium kansasii 235/80
# ASSAY TEXT: Antimycobacterial micromethod in Šula's medium, M. kansasii 235/80
# Format: cell-based
# CONDITION PARAMETERS: 235/80, 336 h, 14 days incubation at 37 °C, read-out: MIC M. kansasii 235/80 14 d

Please review the entries below; each comes with its answer.
O=C(O)c1ccc(N=Cc2ccc([N+](=O)[O-])o2)cc1 = 125 µM
O=C(O)c1ccc(N=Cc2cc(Cl)cc(Cl)c2O)cc1 = 500 µM
O=C(O)c1ccc(N=Cc2cc(Cl)cc(Br)c2O)cc1 = 500 µM

Would you kindly look at the next entry?
Input line: Any idea what MIC came out for `COc1ccccc1C=Nc1ccc(C(=O)O)cc1` on Mycobacterium kansasii 235/80?
Output line: 1000 µM

----------
Reported MIC KP-E 24 h values for a set of compounds
# System: ESBL-positive Klebsiella pneumoniae J 14368/08
# CONDITION PARAMETERS: 24 h

O=C(O)c1ccc(NCc2ccccc2O)cc1 [1u, 4-[(2-Hydroxybenzyl)amino]benzoic acid] = >500 µM

Input line: Any idea what MIC KP-E 24 h came out for `O=C(O)c1ccc(N=Cc2cc(Cl)cc(I)c2O)cc1` on ESBL-positive Klebsiella pneumoniae J 14368/08?
Output line: 125 µM

Input line: Any idea what MIC KP-E 24 h came out for `O=C(O)c1ccc(N=Cc2cc(I)ccc2O)cc1` on ESBL-positive Klebsiella pneumoniae J 14368/08?
Output line: >250 µM

Input line: Any idea what MIC KP-E 24 h came out for `CC(C)(C)c1ccc(O)c(C=Nc2ccc(C(=O)O)cc2)c1` on ESBL-positive Klebsiella pneumoniae J 14368/08?
Output line: >500 µM

Input line: Any idea what MIC KP-E 24 h came out for `O=C(O)c1ccc(N=Cc2c(O)cccc2Cl)cc1` on ESBL-positive Klebsiella pneumoniae J 14368/08?
Output line: >500 µM

Input line: Any idea what MIC KP-E 24 h came out for `O=C(O)c1ccc(N=Cc2cc(O)ccc2O)cc1` on ESBL-positive Klebsiella pneumoniae J 14368/08?
Output line: 500 µM

Input line: Any idea what MIC KP-E 24 h came out for `Cc1ccc(O)c(C=Nc2ccc(C(=O)O)cc2)c1` on ESBL-positive Klebsiella pneumoniae J 14368/08?
Output line: >500 µM

Input line: Any idea what MIC KP-E 24 h came out for `O=C(O)c1ccc(N=Cc2cc(I)cc(I)c2O)cc1` on ESBL-positive Klebsiella pneumoniae J 14368/08?
Output line: 500 µM

Input line: Any idea what MIC KP-E 24 h came out for `O=C(O)c1ccc(N=Cc2ccc(Cl)cc2O)cc1` on ESBL-positive Klebsiella pneumoniae J 14368/08?
Output line: >500 µM

Input line: Any idea what MIC KP-E 24 h came out for `O=C(O)c1ccc(N=Cc2ccc([N+](=O)[O-])o2)cc1` on ESBL-positive Klebsiella pneumoniae J 14368/08?
Output line: 500 µM

Input line: Any idea what MIC KP-E 24 h came out for `O=C(O)c1ccc(N=Cc2cc(Br)ccc2O)cc1` on ESBL-positive Klebsiella pneumoniae J 14368/08?
Output line: >250 µM

----------
Reported MIC values for a set of compounds
# Tested on: Staphylococcus aureus ATCC 29213, CCM 4223
# ASSAY TEXT: Antibacterial microdilution broth method, S. aureus
# Format: cell-based
# CONDITION PARAMETERS: 48 h incubation, read-out: MIC SA 48 h

Please review the entries below; each comes with its answer.
O=C(O)c1ccc(N=Cc2cccc(Cl)c2O)cc1 = > 500 µM
O=C(O)c1ccc(N=Cc2cc(Cl)cc(Cl)c2O)cc1 = 125 µM
O=C(O)c1ccc(N=Cc2cc(I)ccc2O)cc1 = > 250 µM
O=C(O)c1ccc(N=Cc2ccc(Cl)cc2O)cc1 = > 500 µM
O=C(O)c1ccc(N=Cc2cc(I)cc(I)c2O)cc1 = 62.5 µM
O=C(O)c1ccc(N=Cc2cc(Cl)ccc2O)cc1 = > 500 µM

Input line: Any idea what MIC came out for `O=C(O)c1ccc(N=Cc2cc(O)ccc2O)cc1` on Staphylococcus aureus ATCC 29213, CCM 4223?
Output line: 500 µM

Input line: Any idea what MIC came out for `Cc1ccc(O)c(C=Nc2ccc(C(=O)O)cc2)c1` on Staphylococcus aureus ATCC 29213, CCM 4223?
Output line: > 500 µM

Input line: Any idea what MIC came out for `O=C(O)c1ccc(N=Cc2cc([N+](=O)[O-])ccc2O)cc1` on Staphylococcus aureus ATCC 29213, CCM 4223?
Output line: 500 µM

Input line: Any idea what MIC came out for `O=C(O)c1ccc(N=Cc2ccccc2O)cc1` on Staphylococcus aureus ATCC 29213, CCM 4223?
Output line: > 500 µM

Input line: Any idea what MIC came out for `O=C(O)c1ccc(N=Cc2c(O)cccc2Cl)cc1` on Staphylococcus aureus ATCC 29213, CCM 4223?
Output line: > 500 µM
